Consider the following molecules; for each one, report its pKi.
target: UniProt Q63424; assay: TP_TRANSPORTER: inhibition of Gly-Sar uptake (pH6.0) in SKPT cells; type: functional, cell-based
Sequence (Q63424 whole entry): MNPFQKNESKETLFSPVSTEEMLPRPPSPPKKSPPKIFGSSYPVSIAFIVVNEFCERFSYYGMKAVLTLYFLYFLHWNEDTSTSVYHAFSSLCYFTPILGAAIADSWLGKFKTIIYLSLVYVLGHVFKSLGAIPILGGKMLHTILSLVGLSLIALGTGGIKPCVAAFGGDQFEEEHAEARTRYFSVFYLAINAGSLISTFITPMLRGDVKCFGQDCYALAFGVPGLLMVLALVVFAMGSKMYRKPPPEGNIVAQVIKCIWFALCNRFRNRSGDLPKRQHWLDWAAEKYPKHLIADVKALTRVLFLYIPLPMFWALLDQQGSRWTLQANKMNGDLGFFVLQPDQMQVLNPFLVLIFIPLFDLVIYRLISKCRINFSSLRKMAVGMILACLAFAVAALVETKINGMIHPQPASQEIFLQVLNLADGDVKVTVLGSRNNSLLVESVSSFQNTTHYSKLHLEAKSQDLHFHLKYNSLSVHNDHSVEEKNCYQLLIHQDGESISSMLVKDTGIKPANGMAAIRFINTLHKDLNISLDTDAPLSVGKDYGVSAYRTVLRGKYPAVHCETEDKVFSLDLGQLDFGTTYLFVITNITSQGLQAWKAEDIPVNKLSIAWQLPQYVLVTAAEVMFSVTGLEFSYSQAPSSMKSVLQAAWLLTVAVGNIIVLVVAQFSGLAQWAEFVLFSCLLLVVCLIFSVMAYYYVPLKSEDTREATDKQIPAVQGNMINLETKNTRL
Give bare numbers, as −log10 of the molar value.

See these solved cases before continuing.
{"columns": ["molecule", "pKi"],
 "data": [
  ["Nc1nc(/C(=C/CC(=O)O)C(=O)N[C@@H]2C(=O)N3C(C(=O)O)=CCS[C@H]23)cs1 [CEFTIBUTEN]", 3.55],
  ["CC1(C)S[C@@H]2[C@H](NC(=O)C3(N)CCCCC3)C(=O)N2[C@H]1C(=O)O [CYCLACILLIN]", 4.36],
  ["Cc1onc(-c2ccccc2Cl)c1C(=O)N[C@@H]1C(=O)N2[C@@H]1SC(C)(C)[C@@H]2C(=O)O [CLOXACILLIN]", 3.02]
]}

Attention now turns to another entry.
Documented pKi of CO[C@@]1(NC(=O)C(C(=O)O)c2ccc(O)cc2)C(=O)N2C(C(=O)O)=C(CSc3nnnn3C)CO[C@@H]21 (some centres undefined) [MOXALACTAM] : 4.06
